Test system: ACHN renal
test: NCI-60 one-dose screen, 48 h (100 = growth as untreated, 0 = no growth, -100 = all killed)
condition.parameters: 10 µM unless noted
About 83,000 compounds went through this panel and 20% of them were active in at least one assay; those are over-represented in the sample as a whole.
Here, each record is paired with measured growth data.

| compound | system.tested | unit.of.measure | growth |
| --- | --- | --- | --- |
| Nc1c(-c2nc3ccccc3c(=O)[nH]2)nnn1-c1ccc(Cl)cc1 | ACHN renal | % | 87 |
| COc1ccc(Nc2ncc(Br)c(NCCCNC(=O)C3CCC3)n2)cc1 | ACHN renal | % | 19.5 |
| O=S(=O)(Nc1ccsc1-c1nc(-c2ccccc2)no1)c1cc(Cl)cc(Cl)c1 | ACHN renal | % | 98.2 |
| C=C(CNCCc1ccc(O)cc1)[C@@H]1CC[C@]2(COC3CCCCO3)CC[C@]3(C)[C@H](CC[C@@H]4[C@@]5(C)CCC(N)C(C)(C)[C@@H]5CC[C@]43C)[C@@H]12 (stereo partly specified) | ACHN renal | % | -99 |
| C=C1C(=O)O[C@H]2[C@H]1CC/C(Cn1cc(CNCCc3c[nH]c4ccccc34)nn1)=C\CC[C@@]1(C)O[C@@H]21 | ACHN renal | % | 87.4 |
| C=C1C(=O)O[C@H]2[C@H]1CC/C(COC(=O)/C=C\C(=O)NCc1ccc(Cn3c(=O)sn(CCCC)c3=O)cc1)=C\CC[C@@]1(C)O[C@@H]21 | ACHN renal | % | -100 |

====

Tested on: NCI-H522 lung
test: NCI-60 one-dose screen, 48 h
condition.parameters: 10 µM unless noted
This is part of a sample that, as a whole, favours compounds with a hit. Of some 83,000 tested, about 20% had one in any assay. Activity calls are given as the source filed them. The calls were made as follows: active = growth percent below 10; inactive = the rest.
Outcomes: 1 = active, 0 = inactive

| compound | group |
| --- | --- |
| Cc1cc(-c2ccccc2)cc(SC#N)[n+]1[O-] | 0 |
| CCOC(=O)C(O)C(O)(c1ccccc1)c1ccccc1 (centres undefined) | 0 |
| CS(=O)(=O)c1ccc(-c2[nH]c3ccc(F)cc3c2/C=N/NC(N)=S)cc1 | 1 |
| O=C(/C=C/C12c3ccccc3C(c3ccccc31)C1C(=O)N(c3ccccc3)C(=O)C12)c1ccc(Cl)cc1 (centres undefined) | 0 |
| Cc1nc(-c2ccccc2)cc2c(O)c(C(=O)N/N=C/c3ccc(N(C)C)cc3)[nH]c(=O)c12 | 0 |
| O=[N+]([O-])c1ccccc1C(O)Cc1ccc2ccccc2n1 (centres undefined) | 0 |
| CCOc1cc(N)ccc1C(=O)NCCCN(CC)CC | 0 |
| C/C(=N\NC(N)=S)c1nc2ccc(Cl)cc2[nH]1 | 0 |
| COc1ccc(-c2cncnc2N)cc1OC | 0 |
| CC(=O)c1cc2c(o1)C(=O)c1ccccc1C2=O | 1 |
| COc1cc(NC(=O)c2cccc(-c3cc(=O)c4c(O)c(OC)c(OC)cc4o3)c2)cc(OC)c1OC | 0 |
| O=C(Nc1ccccn1)[C@H](O)[C@@H](O)C(=O)N1CCOCC1 | 0 |
| Cc1cc(N2CCCCC2)nc(N(CCNc2ccnc3cc(Cl)ccc23)Cc2ccccn2)n1 | 0 |
| Cc1ccccc1NC(=O)CN(C)C | 0 |
| Nc1c(C(=O)c2ccc(Cl)s2)sc2nc3c(cc12)CCCC3 | 0 |
| CC(=O)Nc1ccc(-c2cc3c(NCc4ccc(F)cc4)ncnc3s2)cc1 | 0 |
| Cc1ccc(Nc2ccc(Nc3ccc(C)cc3S(=O)(=O)O)c3c2C(=O)c2ccccc2C3=O)c(S(=O)(=O)O)c1 | 0 |
| N=c1ccn2c(n1)OC1C(O)C(CO)OC12 (centres undefined) | 0 |
| Cc1nc(C)c(-c2nn3c(-c4cccc(F)c4)nnc3s2)s1 | 0 |

====

Tested on: EKVX NSCLC
test: NCI-60 one-dose screen, 48 h
condition.parameters: 10 µM unless noted
About 83,000 compounds went through this panel and 20% of them were active in at least one assay; those are over-represented in the sample as a whole. Activity calls are given as the source filed them. Rule for the calls: active = growth percent below 10; inactive = the rest.
Outcome codes: true (1) for active, false (0) for inactive

| molecule | group |
| --- | --- |
| Cn1ncc2c(Nc3ccc(Br)cc3)nc(Nc3ccc(Br)cc3)nc21 | false (0) |
| COc1ccc(C2CC(c3ccc4ccccc4c3)=NN2c2nc(O)c(C3=c4cc(Cl)ccc4=NC3=O)s2)cc1 (centres undefined) | true (1) |
| CNC=O | false (0) |
| COc1cc2oc3cc(C)oc(=O)c3c2cc1OC | false (0) |
| CCOC(=O)c1sc(-c2ccc(OS(=O)(=O)c3ccc(C(C)(C)C)cc3)c(C=O)c2)nc1C | false (0) |
| Nc1ccc(S(=O)(=O)Nc2ccsc2-c2nc(-c3ccccc3)no2)cc1 | false (0) |
| c1ccc(-c2oc3ccccc3c2-c2ccccc2)cc1 | false (0) |
| NS(=O)(=O)c1cn(-c2ncnc3nc[nH]c23)ccc1=O | false (0) |
| CC(=O)Nc1ccc2c(c1)Cc1c(F)cccc1-2 | false (0) |

====

Tested on: MDA-MB-435 melanoma
test: NCI-60 one-dose screen, 48 h
condition.parameters: 10 µM unless noted
About 83,000 compounds went through this panel and 20% of them were active in at least one assay; those are over-represented in the sample as a whole. Calls of active or inactive are those of the source. Rule for the calls: active = growth percent below 10; inactive = the rest.
Outcomes: True = active, False = inactive

| compound.string | group |
| --- | --- |
| O=S(=O)(Cc1ccccc1)c1nc2ccccc2s1 | False |
| COc1cc(-c2cccc([N+](=O)[O-])c2)c(-c2nc(-c3ccccc3)c(-c3ccccc3)n2C2CC2)cc1OC | False |
| COc1cc2c(=O)n(CCCn3ccnc3)c3c4cc5c(cc4ccc3c2cc1OC)OCO5 | True |
| CCCCCOC(=O)c1cccc(NC(=O)CN(CC)CC)c1 | False |

====

Test system: SK-MEL-28 melanoma
test: NCI-60 one-dose screen, 48 h
condition.parameters: 10 µM unless noted
About 83,000 compounds went through this panel and 20% of them were active in at least one assay; those are over-represented in the sample as a whole. Active and inactive are the calls of the source. How the source made its calls: active means growth percent below 10; inactive means the rest.
Outcome codes: Y for active, N for inactive

| compound.string | group |
| --- | --- |
| CCN(CC)CCOC(=O)Nc1ccccc1Cl | N |
| OCCCCc1nccc2c1[nH]c1ccccc12 | N |
| CNC1(C#N)CCN(Cc2ccccc2)CC1 | N |
| O=[N+]([O-])c1ccc(-c2cc3c(Nc4ccc(Cl)c(C(F)(F)F)c4)ncnc3s2)cc1 | N |
| CC1(C)N=C(N)N=C(N)N1c1cccc(CN)c1 | N |
| CCOc1ccc2nc(-c3cccc(OCC(=O)NC(C)C)c3)nc(Nc3ccc(-c4cn[nH]c4)cc3)c2c1 | Y |
| CC[C@@H](C[C@H](CCO)c1ccccc1)c1cc2ccccc2o1 | N |
| COc1ccc(/C(C)=C(\c2ccc(Cl)cc2)c2ccc(OCCN3CCCCC3)cc2)cc1F | Y |
| CCNCCNc1cc(-c2ccc(C(=O)OC)cc2)c(C#N)c2nc3ccccc3n12 | N |
| C=C1C(=O)O[C@H]2[C@H]1CC/C(COC(=O)/C=C\C(=O)NCc1ccc(Cn3c(=O)sn(CCCI)c3=O)cc1)=C\CC[C@@]1(C)O[C@@H]21 | Y |
| O=C1NCC(=O)N(Cc2ccco2)[C@H]1Cc1ccccc1 | N |
| O=C1NN(C(=O)c2ccc(O)cc2)C(c2ccccc2)=N/C1=C\c1cn(-c2ccccc2)nc1-c1ccccc1 | N |

====

System: MALME-3M melanoma
test: NCI-60 one-dose screen, 48 h
condition.parameters: 10 µM unless noted
Compounds without any hit were thinned out: in the full panel of roughly 83,000, 20% have a hit. Activity calls are given as the source filed them. How the source made its calls: active means growth percent below 10; inactive means the rest.
Classes used: active, inactive

| molecule | group |
| --- | --- |
| COc1ccc(C2CC(c3cnccn3)=NN2)cc1OC (centres undefined) | inactive |
| CC1(C)CC(=O)c2c(ccc(C(=O)C[C@H](N)CO)c2N)O1 | inactive |
| COc1cc2c(O)n(CCCn3ccnc3)c3c4cnc5cccc(c(=O)c3c2cc1OC)c54 | inactive |
| OCCCCc1nccc2c1[nH]c1ccccc12 | inactive |
| N#C/C(=C\c1ccc(Br)cc1)n1nnc2cc(Cl)c(Cl)cc21 | inactive |
| Cn1cc(-c2ccc3ncc(-c4ccc(CC(=O)Nc5cc(C(C)(C)C)nn5C)cc4)cc3c2)cn1 | active |
| C=C1C(=O)O[C@H]2[C@H]1CC/C(COC(=O)/C=C\C(=O)NCc1ccc(Cn3c(=O)sn(-c4ccc(C#N)cc4)c3=O)cc1)=C\CC[C@@]1(C)O[C@@H]21 | active |
| COc1ccc(OC)c(C(=O)Nc2cccc(-c3cc(=O)c4ccccc4o3)c2)c1 | inactive |
| Cc1ccc(/C=C(\C#N)n2nnc3cc(Cl)c(Cl)cc32)cc1 | inactive |
| O=C(c1ccccc1)c1ccc(N2C(=O)C3C4c5ccccc5C(/C=C/C(=O)c5ccccn5)(c5ccccc54)C3C2=O)cc1 (centres undefined) | active |
| CC(=O)c1sc(-c2ccccc2)cc1N | inactive |
| C/C(=N\NC(=O)Cn1c(-c2ccc(S(C)(=O)=O)cc2)nc2cc(Cl)ccc21)c1ccc(Cl)cc1 | inactive |
| c1ccc([P+](CCCc2n(Cc3ccc4ccccc4c3)c3ccccc3[n+]2Cc2ccc3ccccc3c2)(c2ccccc2)c2ccccc2)cc1 | inactive |
| Nc1c(C(=O)c2ccc(Cl)s2)sc2nc3c(cc12)CCCC3 | inactive |
| O=S(=O)(Nc1ccsc1-c1nc(-c2ccccc2)no1)c1cc(Cl)cc(Cl)c1 | inactive |
| C[C@@H]1C(=O)N(C[C@H](Cc2ccccc2)NC(=O)OCc2ccccc2)[C@]1(Cc1ccccc1)C(=O)OC(C)(C)C | inactive |
| N#Cc1c(N)n2c(nc1=Nc1ccc(Cl)cc1)sc1cc(Cl)ccc12 | inactive |
| O=c1cc(-c2ccc(OCc3ccccc3)cc2)oc2c(I)c(OCc3ccccc3)cc(OCc3ccccc3)c12 | inactive |
| Cc1[nH]c(-c2nc3ccccc3[nH]2)c(C)c1C(=O)N1CCOCC1 | inactive |
| NC(N)=N/N=C/c1ccc(Br)cc1 | inactive |
| O=C(/C=C/C12c3ccccc3C(c3ccccc31)C1C(=O)N(c3ccccc3)C(=O)C12)c1ccc(Cl)cc1 (centres undefined) | active |
| COc1cc2nc(Nc3ccc(F)cc3)nc(N)c2cc1OC | inactive |
| Cc1nc(Nc2cccc(NC(=O)Nc3ccc(Cl)cc3)c2)c2ccccc2n1 | inactive |
| COc1ccc(/C(C)=C(\c2ccc(Cl)cc2)c2ccc(OCCN3CCCCC3)cc2)cc1F | active |
| COc1cccc(CCC2CCCN(c3cc(C)nc(N)n3)C2)c1 (centres undefined) | inactive |
| O=[N+]([O-])c1ccc(-c2cc3c(Nc4ccc(OCc5cccc(Cl)c5)c(Cl)c4)ncnc3s2)cc1 | inactive |
| CN(C)c1ccc(/C=N/NC(=O)COc2cc(=O)n(C)c3ccccc23)cc1 | inactive |
| Cc1cc(-c2ccc(N(C)C)cc2)c2sc(=O)[nH]c2n1 | inactive |
| CCOc1ccc(S(=O)(=O)c2ccc(C)cc2)c2c1no[n+]2[O-] | inactive |
| CCOC(=O)c1c2c(c(C)n1C)-c1nn(Cc3ccc(OC)cc3)cc1CC2 | inactive |
| COc1cc(NC(=O)c2cccc(-c3cc(=O)c4c(O)c(OC)c(OC)cc4o3)c2)cc(OC)c1OC | inactive |
| CN=C1C=CC(=C(c2ccc(N(C)C)cc2)c2ccc(N(C)C)cc2)C=C1 | active |
| CC(/C=N/NC(=O)c1cc(-c2ccco2)[nH]n1)=C\c1ccccc1 | inactive |
| Cc1ccc2c(n1)C(=O)C(Oc1ccc(F)cc1)=CC2=O | inactive |
